Test system: COLO 205 colon
Assay: NCI-60 one-dose screen, 48 h (100 = growth as untreated, 0 = no growth, -100 = all killed)
Conditions: 10 µM unless noted
About 83,000 compounds went through this panel and 20% of them were active in at least one assay; those are over-represented in the sample as a whole.

Compound	growth [%]
O=C(Cc1ccccc1[N+](=O)[O-])c1ccc2c(c1)OCO2	116
N#CC1=C(N2CCOCC2)NC2c3ccccc3Sc3ccccc3N2C1=N (stereo not given)	96.8
COc1cccc(NC(=O)NCCNc2nccc(-c3c(-c4ccc(F)cc4)nc4sccn34)n2)c1	69.3
CCOc1ccc(Br)cc1/C=C(\C#N)c1ccc([N+](=O)[O-])cc1	97.2
Oc1ccc(Br)cc1/C=N/NC(=S)NC12CC3CC(CC(C3)C1)C2	68
Cc1ccccc1-n1c(C)nc2cc(NC(=O)c3ccc(Cl)cc3)ccc2c1=O	119
CC(=O)Nc1nc(C)c(C(=O)N/N=C/N2CCCCC2)s1	114
Cc1c(O)c(N=Nc2ccc(C(=O)O)c(O)c2)c2ccccc2c1O	119
COc1cc(CCNc2cnc3cc(N)cc(N)c3n2)cc(OC)c1	136
Ic1ccc(SSc2ccc(I)cc2)cc1	124
COc1ccc(C(O)(c2ccccc2)C(C(=O)O)c2ccccc2)cc1 (stereo not given)	111
c1cc(C2CCCCC2)ccc1OCCCCCCN1CCNCC1	-52.2
COc1ccc(-c2nc(N)n(C(=S)Nc3ccccc3)n2)cc1	105
CC(=O)Nc1nc(C)c(C(=O)NN)s1	108
COc1cccc(-c2cc(-c3cc4ccccc4oc3=O)nc(N)n2)c1	108
O=C(O)CC1Cc2ccccc2C1C(=O)O (stereo not given)	114
COc1ccc2c(c1)cn1c3ccc(O)cc3[nH]c(=O)c21	4.21
CC(C)OC(=O)Nn1cnc2ccccc21	130
O=C(Nc1ccc(Cl)c(Cl)c1)O/N=C\c1c(Cl)ccc([N+](=O)[O-])c1Cl	-83.3
CCCCCCCCCCCCOC(=N)N(C)C	100
O=CN/N=C/c1ccc(Cl)c([N+](=O)[O-])c1	26
COc1ccc(NC(=O)/C=C(C)/C=C/C=C(C)/C=C/C2=C(C)CCCC2(C)C)cc1	33
Cn1c2c(cc(S(=O)(=O)c3ccccc3)c1=O)CCc1c-2cnn1-c1ccc(Cl)cc1	77.5
COC1NC(Cl)=C(C#N)C(C#N)(C#N)C1(C)C (stereo not given)	124
CSC1=Nc2c(c(C)c(-c3ccccc3)n2CCCCl)C2=NC(=O)CN12	79.1
Cc1ccc2c(c1)C(=O)CCS2	98.2
CCCCCCCCCC[N+](C)(C)N	100
COC(=O)c1ccc(C(=Nc2ccc(N(C)C(=O)CN3CCN(C)CC3)cc2)c2c(O)[nH]c3ccc(C(=O)OC)cc23)cc1	21.8
CC(C)C(=O)c1ccc(Cl)s1	109
CC(O)C(N)=O (stereo not given)	104
Cc1c(C(N)=O)sc2c1c(=O)n(Cc1ccccc1)c1nnc(S(C)(=O)=O)n21	93.8
Nc1nc2cc(O)ccc2n2cc3c(F)cccc3c12	55.1
CC(C)OC(=O)c1ccc2n1CCCc1cnc(Nc3ccccc3)nc1-2	86
O=C1C(=O)c2ccccc2C(O)=C1CCCc1ccc(Oc2ccccc2)cc1	111
CC[C@H](Nc1ncnc2nc[nH]c12)c1nc2cccc(NCc3ccc(C(=O)NO)o3)c2c(=O)n1-c1ccccc1	115
COC(=O)/C(Br)=C/c1c[nH]c2ccc(Br)cc12	95.8
CCOC(=O)NC1=NCC(C)(C)S1	117
NC(CSC(c1ccccc1)(c1ccccc1)c1ccccc1)C(=O)NCC(=O)O (stereo not given)	16.6
O=C1C(Cl)=C(Nc2ccc(Nc3ccccc3)c(NC3=C(Cl)C(=O)c4ccccc4C3=O)c2)C(=O)c2ccccc21	-15.6
CC([C@H]1CC=C2C3CCC4=C[C@@H](N(C)C)CC[C@]4(C)C3CC[C@@]21C)N(C)C (stereo not given in full)	-65.1
CCCCCC(=C/c1ccccc1)/C=N/N=C(N)N	-93.9
O=C(C(=O)N1CCOCC1)c1ccc(O[C@H]2O[C@H](CO)[C@@H](O)[C@H](O)[C@@H]2O)cc1	119
O=C(N/N=C/c1coc2ccccc2c1=O)c1cc2oc(-c3ccccc3)cc2[nH]1	94.3
O=C1NCCN1/N=C/c1c(Cl)nc2n1CCS2	133
O=C1OC(c2ccc(-c3ccccc3)cc2)=C/C1=C/c1c2ccccc2cc2ccccc12	101

Hello, the source for this data is PubChem BioAssay (NCI), in case you need it.
